Protein target, amino acids: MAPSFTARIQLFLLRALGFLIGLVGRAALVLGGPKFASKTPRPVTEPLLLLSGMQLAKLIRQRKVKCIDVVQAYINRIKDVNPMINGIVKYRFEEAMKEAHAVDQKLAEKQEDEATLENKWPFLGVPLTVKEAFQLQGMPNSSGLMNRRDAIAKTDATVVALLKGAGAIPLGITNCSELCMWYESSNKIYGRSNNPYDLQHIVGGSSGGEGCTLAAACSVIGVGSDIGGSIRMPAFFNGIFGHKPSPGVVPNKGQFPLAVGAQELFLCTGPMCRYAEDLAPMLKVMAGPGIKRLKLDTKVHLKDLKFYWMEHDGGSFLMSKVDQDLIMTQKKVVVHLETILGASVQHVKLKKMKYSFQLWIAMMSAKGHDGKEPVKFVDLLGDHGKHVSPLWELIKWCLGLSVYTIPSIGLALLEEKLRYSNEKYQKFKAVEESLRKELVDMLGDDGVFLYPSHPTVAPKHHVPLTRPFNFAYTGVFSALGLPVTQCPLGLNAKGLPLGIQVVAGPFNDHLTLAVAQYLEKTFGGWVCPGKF
pIC50: −log10 of the molar value.
Assay endpoint: pIC50

# input compound: `O=C(Nc1cccnc1)N1CCC(Cc2cccc(Oc3ccc(C(F)(F)F)cn3)c2)CC1` ; wanted: its pIC50
< 5.00
